The values you see were collected from ChEMBL document CHEMBL1156088.

tested on: Staphylococcus aureus; assay: Antibacterial activity against methicillin-resistant Staphylococcus aureus 562 by NCCLS method; type: functional
Examples of compounds with documented MIC follow.

[
  {
    "compound": "CC(=O)NC[C@H]1CN(c2ccc(N3CCN(Cc4ccc([N+](=O)[O-])o4)CC3)c(F)c2)C(=O)O1",
    "MIC": "2 µg/mL"
  },
  {
    "compound": "O=C1O[C@@H](CNc2ccon2)CN1c1ccc(N2CCN(Cc3ccc([N+](=O)[O-])o3)CC2)c(F)c1",
    "MIC": "2 µg/mL"
  },
  {
    "compound": "O=C(/C=C/c1ccccc1)NC[C@H]1CN(c2ccc(N3CCN(Cc4ccc([N+](=O)[O-])o4)CC3)c(F)c2)C(=O)O1",
    "MIC": "> 16 µg/mL"
  },
  {
    "compound": "O=CNC[C@H]1CN(c2ccc(N3CCN(Cc4ccc([N+](=O)[O-])o4)CC3)c(F)c2)C(=O)O1",
    "MIC": "2 µg/mL"
  },
  {
    "compound": "O=C1O[C@@H](CO)CN1c1ccc(N2CCN(Cc3ccc([N+](=O)[O-])o3)CC2)c(F)c1",
    "MIC": "> 16 µg/mL"
  },
  {
    "compound": "O=C(CCl)NC[C@H]1CN(c2ccc(N3CCN(Cc4ccc([N+](=O)[O-])o4)CC3)c(F)c2)C(=O)O1",
    "MIC": "2 µg/mL"
  },
  {
    "compound": "O=C(NC[C@H]1CN(c2ccc(N3CCN(Cc4ccc([N+](=O)[O-])o4)CC3)c(F)c2)C(=O)O1)C(Cl)Cl",
    "MIC": "> 16 µg/mL"
  },
  {
    "compound": "COC(=S)NC[C@H]1CN(c2ccc(N3CCN(Cc4ccc([N+](=O)[O-])o4)CC3)c(F)c2)C(=O)O1",
    "MIC": "2 µg/mL"
  },
  {
    "compound": "O=C(/C=C/c1ccc2c(c1)OCO2)NC[C@H]1CN(c2ccc(N3CCN(Cc4ccc([N+](=O)[O-])o4)CC3)c(F)c2)C(=O)O1",
    "MIC": "> 16 µg/mL"
  },
  {
    "compound": "CCOC(=O)NC[C@H]1CN(c2ccc(N3CCN(Cc4ccc([N+](=O)[O-])o4)CC3)c(F)c2)C(=O)O1",
    "MIC": "> 16 µg/mL"
  },
  {
    "compound": "CSC(=S)NC[C@H]1CN(c2ccc(N3CCN(Cc4ccc([N+](=O)[O-])o4)CC3)c(F)c2)C(=O)O1",
    "MIC": "> 16 µg/mL"
  },
  {
    "compound": "CC(=S)NC[C@H]1CN(c2ccc(N3CCN(Cc4ccc([N+](=O)[O-])o4)CC3)c(F)c2)C(=O)O1",
    "MIC": "1 µg/mL"
  },
  {
    "compound": "O=C1O[C@@H](CN=C=S)CN1c1ccc(N2CCN(Cc3ccc([N+](=O)[O-])o3)CC2)c(F)c1",
    "MIC": "> 16 µg/mL"
  },
  {
    "compound": "O=C(NC[C@H]1CN(c2ccc(N3CCN(Cc4ccc([N+](=O)[O-])o4)CC3)c(F)c2)C(=O)O1)c1ccc(Br)o1",
    "MIC": "> 16 µg/mL"
  },
  {
    "compound": "CC(Cl)C(=O)NC[C@H]1CN(c2ccc(N3CCN(Cc4ccc([N+](=O)[O-])o4)CC3)c(F)c2)C(=O)O1 (stereo partly specified)",
    "MIC": "> 16 µg/mL"
  },
  {
    "compound": "O=C(NC[C@H]1CN(c2ccc(N3CCN(Cc4ccc([N+](=O)[O-])o4)CC3)c(F)c2)C(=O)O1)c1ccc([N+](=O)[O-])s1",
    "MIC": "> 16 µg/mL"
  }
]
